Values were extracted from PubChem BioAssay (NCI).

Tested on: SR leukemia
Method notes: NCI tumour cell line growth inhibition, 48 h
Answer each item with its documented TGI.

These recorded examples may help you get a feel for the data.
COC(=O)NC(=O)c1cn(C2CCCCC2)c(=O)[nH]c1=O
> 100 µM
CC(C)NC(=O)OCc1c(COC(=O)NC(C)C)c(-c2cc[n+](COC(=O)C(C)C)cc2)n2c1CCC2
> 63.3 µM
Cc1c/c(=N/NC(=O)c2ccncc2)n2nc(N)sc2n1
> 100 µM
CCOP(=O)(OCC)C(Nc1cccc(F)c1)c1ccc(N(C)C)cc1 (stereo not given)
> 100 µM

Noted for Oc1cccc(-c2nc(-c3ccccc3)[nH]c2-c2ccncc2)c1 : its TGI reads > 25 µM
